This listing pairs compounds with measured GI50.
System: NCI-H522
Test: NCI tumour cell line growth inhibition, 48 h
Active and inactive are the calls of the source. No stated cut-off is given here; in the data, active = GI50 up to about 1.1 µM and inactive = higher. Where a SMILES comes first, the peptide text is derived from it. The star is where a group is joined. Boc = CC(C)(C)OC(=O)*
EXPERIMENTAL_READOUT: GI50

COMPOUND	EXPERIMENTAL_READOUT	EXPERIMENTAL_VALUE
N#Cc1c(Cl)c(C=O)c(=O)n2c1[nH]c1ccccc12	GI50	44 µM (inactive)
CC(C)(C)C1=CC(=C2C=Cc3cc(O)ccc3O2)C=C(C(C)(C)C)C1=O	GI50	1.48 µM (inactive)
Cc1c2ccccc2c(C2C3C(=O)N(c4cccc5ccccc45)C(=O)C3ON2Cc2ccc(CC(N)=O)cc2)c2ccccc12 (stereo not given)	GI50	18.9 µM (inactive)
C=C1c2nc3ccccc3n2C=C(c2ccccc2)N1c1ccc(C)cc1	GI50	35.1 µM (inactive)
Cc1ccccc1C(=O)Oc1ccc(O)cc1	GI50	> 100 µM (inactive)
CC(C)(C)OC(=O)NC(Cc1ccccc1)C(=O)N1CCCC1C(N)=O (stereo not drawn) (Boc-Phe-Pro-NH2; configuration not given here)	GI50	> 100 µM (inactive)
COC(=O)Nc1nc2cc(NS(=O)(=O)c3cccs3)ccc2[nH]1	GI50	6.55 µM (inactive)
Cc1c2cnccc2c(C)c2c1c1ccccc1n2CC1CO1 (stereo not given)	GI50	1.07 µM (active)
CC1=C(C)C(=O)C2=C(OCCCO2)C1=O	GI50	18 µM (inactive)
CCN1N=CSC12C(=O)N(c1ccccc1)C(=O)N2c1ccccc1 (stereo not given)	GI50	> 100 µM (inactive)
CCOC(=O)c1cc(-c2ccc(Cl)cc2)c([N+](=O)[O-])n1C	GI50	> 10 µM (inactive)
Cc1cc2c(cc1C(=O)c1ccc(N)cc1)OCO2	GI50	19.1 µM (inactive)
O=S(=O)(c1ccccc1)N1CCCC(c2ccccc2)CC1 (stereo not given)	GI50	35.4 µM (inactive)
O=[N+]([O-])c1ccc(Cl)cc1N/N=C/c1ccnc2ccccc12	GI50	> 100 µM (inactive)
O=[N+]([O-])c1ccc(OCCNc2cccc3ccccc23)cc1	GI50	> 100 µM (inactive)
COC(=O)C1OC(O[C@H]2CC[C@]3(C)[C@H]4CC=C5[C@@H]6CC(C)(C)CC[C@]6(C(=O)OC6OCC(O)C(O)C6OC6OC(C)C(OC7OCC(OC8OCC(O)C(O)C8O)C(O)C7O)C(O)C6O)[C@H](O)C[C@@]5(C)[C@]4(C)CC[C@H]3C2(C)C)C(O)C(O)C1O (stereo not given in full)	GI50	2.66 µM (inactive)
COc1cc2c(cc1O)C=NCC2	GI50	> 100 µM (inactive)
CCn1c(-c2ccc(F)cc2)nc2c1C(=O)c1ccccc1C2=O	GI50	> 100 µM (inactive)
CN(C)c1ncnc2c1ncn2C1C=CC(COS(N)(=O)=O)C1 (stereo not given)	GI50	47.2 µM (inactive)
Cc1cc(O)nc(CNC(=O)Cc2ccccc2)n1	GI50	> 100 µM (inactive)
